test: Stability of QC samples in aCSF (freeze-thaw, room temperature); format: physicochemical; conditions: aCSF QC 5 ng/mL, three freeze-thaw cycles, percentage remaining, n = 5
assay metric: Stability Freeze-thaw
Hey, just the number and the unit after it is fine.

IN: What value of measured Stability Freeze-thaw is listed for CC(C)(O)[C@H](O)COc1c2ccoc2cc2oc(=O)ccc12 [Compound 8, oxypeucedanin hydrate] ?
OUT: 97.57±5.59%

IN: // next record CC(C)(O)[C@@H]1Cc2c(ccc3ccc(=O)oc23)O1
OUT: 96.35±9.69%

IN: Check CC=C(C)C(=O)OC(C(O)c1cc2ccc(=O)oc2cc1OC)C(C)(C)O (stereo not shown) too.
OUT: 95.14±6.53%

IN: And COc1ccc2ccc(=O)oc2c1CC=C(C)C ?
OUT: 94.43±7.49%

----------
assay: Rat CSF distribution after oral administration of APRE (UPLC-MS/MS); details: rat, CSF, po, 4 g/kg
Outcome label depends on AUC(0-inf) relative to 70 ng·h/mL: at/above gives y, below gives n.

                                   compound  category_label
0  COc1ccc2ccc(=O)oc2c1CC(O)C(C)(C)O (centres unmarked) [Compound 11, Meranzin hydrate]               y
1  CC(C)(O)[C@H](O)COc1c2ccoc2cc2oc(=O)ccc12 [Compound 8, oxypeucedanin hydrate]               y
2  CC=C(C)C(=O)OC(C(O)c1cc2ccc(=O)oc2cc1OC)C(C)(C)O (centres unmarked)               n
3       CC(C)(O)[C@H]1Cc2cc3ccc(=O)oc3cc2O1               y
4                     O=c1ccc2cc3ccoc3cc2o1               n

IN: Textbook exercise: given the entry CC(C)(O)[C@@H]1Cc2c(ccc3ccc(=O)oc23)O1 , state whether its AUC(0-inf) is greater than or equal to 70 ng·h/mL.
OUT: y

IN: Could you do the same for COc1c2ccoc2cc2oc(=O)ccc12 , please?
OUT: n

IN: Proceed to COc1ccc2ccc(=O)oc2c1CC=C(C)C
OUT: n

----------
assay: Rat brain distribution after oral administration of APRE (UPLC-MS/MS); details: rat, brain, po, 4 g/kg
assay metric: Tmax (min)
Express it in min; write the number only.

Study these solved cases before continuing.
In [3]: df
Out[3]:
                                   compound  value_reported
0  CC(C)(O)[C@H](O)COc1c2ccoc2cc2oc(=O)ccc12 [Compound 8, oxypeucedanin hydrate]            57.6
1  CC(C)=CCOc1c2ccoc2cc2oc(=O)ccc12 [Compound 4, isoimperatorin]            19.8
2  COc1ccc2ccc(=O)oc2c1CC=C(C)C [Compound 10, osthole]              21

With those in mind, consider the next compound.
IN: Fill in: Tmax of CC=C(C)C(=O)OC(C(O)c1cc2ccc(=O)oc2cc1OC)C(C)(C)O (stereo not shown) [Compound 9, angelol B] is ___
OUT: 17.4

----------
experiment: Rat brain distribution after oral administration of APRE (UPLC-MS/MS); details: log (AUC0→∞/brain/AUC0→∞/plasma), rat, oral APRE
assay metric: log BBexpt.
Please give only the number in your answer, with no unit.

Look over these answered cases.
>>> df
                                   molecule  assay_metric  value_reported
0  COc1ccc2ccc(=O)oc2c1CC(O)C(C)(C)O (stereo not shown) [Compound 11, Meranzin hydrate]   log BBexpt.           −0.10
1  CC(C)(O)[C@H](O)COc1c2ccoc2cc2oc(=O)ccc12 [Compound 8, oxypeucedanin hydrate]   log BBexpt.           −0.16
2  CC(C)=CCOc1c2ccoc2cc2oc(=O)ccc12 [Compound 4, isoimperatorin]   log BBexpt.           −0.16

Moving on to another molecule below.
IN: Recorded log BBexpt. for CC=C(C)C(=O)OC(C(O)c1cc2ccc(=O)oc2cc1OC)C(C)(C)O (stereo not shown) [Compound 9, angelol B] , please?
OUT: −0.44
